test system: Escherichia coli TOP10; test: shrunken log2 fold change of peptide-encoding DNA abundance (4.5 h post-induction vs induction); higher = less antimicrobial activity (less host growth inhibition); details: time post-induction: 4.5 h; library: site-saturation at positions 5, 18, 19, 20
Label label 0 if shrunken log2 fold change falls below -0.1; label label 1 in every other case.

Is the recorded value of shrunken log2 fold change equal to or greater than -0.1 for this sequence? RRIRVRPPRLPRPRPRPWAQPRP label 0

Is the recorded value of shrunken log2 fold change equal to or greater than -0.1 for this sequence? RRIRARPPRLPRPRPRPDTVPRP label 0

Is the recorded value of shrunken log2 fold change equal to or greater than -0.1 for this sequence? RRIRERPPRLPRPRPRPKLSPRP label 0

Is the recorded value of shrunken log2 fold change equal to or greater than -0.1 for this sequence? RRIRRRPPRLPRPRPRPYSKPRP label 0

Is the recorded value of shrunken log2 fold change equal to or greater than -0.1 for this sequence? RRIRPRPPRLPRPRPRPTDDPRP label 0

Is the recorded value of shrunken log2 fold change equal to or greater than -0.1 for this sequence? RRIRSRPPRLPRPRPRPPQYPRP label 1

Is the recorded value of shrunken log2 fold change equal to or greater than -0.1 for this sequence? RRIRQRPPRLPRPRPRPIEVPRP label 1

Is the recorded value of shrunken log2 fold change equal to or greater than -0.1 for this sequence? RRIRRRPPRLPRPRPRPFQWPRP label 1

* * *

Answer each item with its documented shrunken log2 fold change.
tested on: Escherichia coli TOP10; assay: shrunken log2 fold change of peptide-encoding DNA abundance (4.5 h post-induction vs induction); higher = less antimicrobial activity (less host growth inhibition); details: time post-induction: 4.5 h; library: site-saturation at positions 5, 18, 19, 20;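 also: peptides expressed intracellularly from a pBAD plasmid library in pooled LB shake-flask culture, induced with 0.3% L-arabinose, DNA abundance read by NGS, three biological replicates, DESeq2 with apeglm shrinkage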
Returns: the value as a bare number; no unit string appended.

Look up shrunken log2 fold change of RRIRTRPPRLPRPRPRPTFWPRP and report it. 0.467

Look up shrunken log2 fold change of RRIRERPPRLPRPRPRPSVSPRP and report it. -0.335

Look up shrunken log2 fold change of RRIRQRPPRLPRPRPRPNNFPRP and report it. -0.17

Look up shrunken log2 fold change of RRIRGRPPRLPRPRPRPNIVPRP and report it. 0.364

Look up shrunken log2 fold change of RRIRIRPPRLPRPRPRPFHAPRP and report it. -0.388

Look up shrunken log2 fold change of RRIRLRPPRLPRPRPRPAFLPRP and report it. 0.134

Look up shrunken log2 fold change of RRIRFRPPRLPRPRPRPDLRPRP and report it. -0.108

Look up shrunken log2 fold change of RRIRRRPPRLPRPRPRPKCAPRP and report it. 0.884

Look up shrunken log2 fold change of RRIRIRPPRLPRPRPRPLFTPRP and report it. -0.374

Look up shrunken log2 fold change of RRIRWRPPRLPRPRPRPDDGPRP and report it. 0.305

Look up shrunken log2 fold change of RRIRQRPPRLPRPRPRPEHLPRP and report it. -0.00142

Look up shrunken log2 fold change of RRIRYRPPRLPRPRPRPIQPPRP and report it. 0.00143

Look up shrunken log2 fold change of RRIRGRPPRLPRPRPRPNFNPRP and report it. 0.0556

Look up shrunken log2 fold change of RRIRPRPPRLPRPRPRPYSTPRP and report it. -0.729

Look up shrunken log2 fold change of RRIRWRPPRLPRPRPRPADTPRP and report it. 0.0101

Look up shrunken log2 fold change of RRIRKRPPRLPRPRPRPVQNPRP and report it. 0.49

Look up shrunken log2 fold change of RRIRKRPPRLPRPRPRPRVHPRP and report it. 0.252

Look up shrunken log2 fold change of RRIRARPPRLPRPRPRPWTTPRP and report it. 0.0452

Look up shrunken log2 fold change of RRIRFRPPRLPRPRPRPINSPRP and report it. -0.428

Look up shrunken log2 fold change of RRIRQRPPRLPRPRPRPGFYPRP and report it. 0.116

Look up shrunken log2 fold change of RRIRNRPPRLPRPRPRPPRCPRP and report it. 0.389

Look up shrunken log2 fold change of RRIRVRPPRLPRPRPRPDPCPRP and report it. -0.0596

Look up shrunken log2 fold change of RRIRIRPPRLPRPRPRPMVCPRP and report it. -0.0245

Look up shrunken log2 fold change of RRIRERPPRLPRPRPRPVHQPRP and report it. 0.107

Look up shrunken log2 fold change of RRIRDRPPRLPRPRPRPVQMPRP and report it. -0.0835

Look up shrunken log2 fold change of RRIRFRPPRLPRPRPRPPDSPRP and report it. 0.0539

Look up shrunken log2 fold change of RRIRNRPPRLPRPRPRPFYMPRP and report it. -0.18

Look up shrunken log2 fold change of RRIRMRPPRLPRPRPRPISHPRP and report it. -0.018

Look up shrunken log2 fold change of RRIRWRPPRLPRPRPRPLTKPRP and report it. 0.23

Look up shrunken log2 fold change of RRIRTRPPRLPRPRPRPLRHPRP and report it. 0.252

Look up shrunken log2 fold change of RRIRYRPPRLPRPRPRPWFNPRP and report it. -0.0994

Look up shrunken log2 fold change of RRIRVRPPRLPRPRPRPAIMPRP and report it. 0.191

Look up shrunken log2 fold change of RRIRKRPPRLPRPRPRPHLVPRP and report it. 0.0297

Look up shrunken log2 fold change of RRIRERPPRLPRPRPRPTIYPRP and report it. 0.00607

Look up shrunken log2 fold change of RRIRMRPPRLPRPRPRPTQMPRP and report it. 0.195

Look up shrunken log2 fold change of RRIRQRPPRLPRPRPRPVQRPRP and report it. 0.862

Look up shrunken log2 fold change of RRIRRRPPRLPRPRPRPEFAPRP and report it. 0.129

Look up shrunken log2 fold change of RRIRCRPPRLPRPRPRPVQRPRP and report it. 0.123

Look up shrunken log2 fold change of RRIRKRPPRLPRPRPRPVSPPRP and report it. 0.286
